target: panel of more than 300 wild-type and mutant kinases (313 kinase panel) (Homo sapiens, UniProt P54764)
Sequence (P54764 20-986, change not shown): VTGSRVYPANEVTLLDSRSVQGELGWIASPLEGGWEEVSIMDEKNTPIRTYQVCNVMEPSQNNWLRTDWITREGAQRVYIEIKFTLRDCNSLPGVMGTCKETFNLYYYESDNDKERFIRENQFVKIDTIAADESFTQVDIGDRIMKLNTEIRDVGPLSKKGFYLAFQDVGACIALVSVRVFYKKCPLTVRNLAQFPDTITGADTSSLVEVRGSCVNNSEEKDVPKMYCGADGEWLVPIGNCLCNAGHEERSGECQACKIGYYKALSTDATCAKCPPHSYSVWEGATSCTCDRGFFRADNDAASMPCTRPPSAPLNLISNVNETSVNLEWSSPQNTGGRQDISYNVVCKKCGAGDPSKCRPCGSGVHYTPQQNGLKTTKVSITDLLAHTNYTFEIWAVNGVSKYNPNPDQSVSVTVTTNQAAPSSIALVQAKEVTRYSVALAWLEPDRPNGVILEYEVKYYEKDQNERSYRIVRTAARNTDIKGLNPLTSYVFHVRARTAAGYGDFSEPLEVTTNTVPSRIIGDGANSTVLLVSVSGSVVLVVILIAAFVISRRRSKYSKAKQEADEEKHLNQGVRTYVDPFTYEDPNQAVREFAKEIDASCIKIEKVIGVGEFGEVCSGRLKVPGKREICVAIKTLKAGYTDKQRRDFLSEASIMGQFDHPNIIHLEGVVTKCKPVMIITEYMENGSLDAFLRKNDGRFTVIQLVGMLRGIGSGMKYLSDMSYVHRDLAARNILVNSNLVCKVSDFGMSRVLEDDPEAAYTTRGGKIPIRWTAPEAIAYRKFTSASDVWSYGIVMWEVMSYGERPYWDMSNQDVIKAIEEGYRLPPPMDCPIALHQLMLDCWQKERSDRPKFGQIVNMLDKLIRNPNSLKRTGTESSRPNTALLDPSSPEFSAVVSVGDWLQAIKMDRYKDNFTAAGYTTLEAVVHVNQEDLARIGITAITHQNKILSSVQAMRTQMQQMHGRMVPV
assay-comment: Kinase profiling in a biochemical assay panel (mobility shift assays and ELISA), %-inhibition at 1 μM; selectivity entropy
recorded-conditions: kinase EPHA4; compound at 1 μM
Measured %-inhibition of EPHA4 by item
Answer format: numeric, % implied, no suffix.

# annotated cases, reported %-inhibition of EPHA4 shown
CS(=O)(=O)CCNCc1ccc(-c2ccc3ncnc(Nc4ccc(OCc5cccc(F)c5)c(Cl)c4)c3c2)o1 [lapatinib]; -0.823
CNC(=O)c1cc(Oc2ccc(NC(=O)Nc3ccc(Cl)c(C(F)(F)F)c3)c(F)c2)ccn1 [regorafenib]; 92
CC(C)(C)c1nc(-c2cccc(NS(=O)(=O)c3c(F)cccc3F)c2F)c(-c2ccnc(N)n2)s1 [dabrafenib]; 12
N#CC[C@H](C1CCCC1)n1cc(-c2ncnc3[nH]ccc23)cn1 [ruxolitinib]; 12
CCCS(=O)(=O)Nc1ccc(F)c(C(=O)c2c[nH]c3ncc(-c4ccc(Cl)cc4)cc23)c1F [vemurafenib]; -2

Then this molecule:
Measured %-inhibition of EPHA4, Cc1ccc(Nc2nccc(N(C)c3ccc4c(C)n(C)nc4c3)n2)cc1S(N)(=O)=O [pazopanib] : 22

---

target: panel of more than 300 wild-type and mutant kinases (313 kinase panel) (Homo sapiens)
assay-comment: Kinase profiling in a biochemical assay panel (mobility shift assays and ELISA), %-inhibition at 1 μM; selectivity entropy
recorded-conditions: kinase FGFR3; compound at 1 μM
observable: %-inhibition of FGFR3 (%)
Answer format: numeric, % implied, no suffix.

CC(=O)Nc1cccc(-n2c(=O)n(C3CC3)c(=O)c3c(Nc4ccc(I)cc4F)n(C)c(=O)c(C)c32)c1 [trametinib]; -5.68
COc1cc2nccc(Oc3ccc(NC(=O)C4(C(=O)Nc5ccc(F)cc5)CC4)cc3)c2cc1OC [cabozantinib]; 8
CNC(=O)c1cc(Oc2ccc(NC(=O)Nc3ccc(Cl)c(C(F)(F)F)c3)c(F)c2)ccn1 [regorafenib]; 97
CC(C)(C)c1nc(-c2cccc(NS(=O)(=O)c3c(F)cccc3F)c2F)c(-c2ccnc(N)n2)s1 [dabrafenib]; 4.27
CS(=O)(=O)CCNCc1ccc(-c2ccc3ncnc(Nc4ccc(OCc5cccc(F)c5)c(Cl)c4)c3c2)o1 [lapatinib]; 0.327
CCN(CC)CCNC(=O)c1c(C)[nH]c(/C=C2\C(=O)Nc3ccc(F)cc32)c1C [sunitinib]; 97

Measured %-inhibition of FGFR3, C[C@@H](Oc1cc(-c2cnn(C3CCNCC3)c2)cnc1N)c1c(Cl)ccc(F)c1Cl [crizotinib] : 43

Measured %-inhibition of FGFR3, Cc1ccc(C(=O)Nc2ccc(CN3CCN(C)CC3)c(C(F)(F)F)c2)cc1C#Cc1cnc2cccnn12 [ponatinib] : 101

Measured %-inhibition of FGFR3, CCCS(=O)(=O)Nc1ccc(F)c(C(=O)c2c[nH]c3ncc(-c4ccc(Cl)cc4)cc23)c1F [vemurafenib] : 15

---

Measured IC50 by item
System: forty-four human cancer cell lines
assay-comment: Cell proliferation assay (ATPlite, 72 hours) in the 44 cell line Oncolines panel
Format: cell-based
recorded-conditions: Homo sapiens, 769-P, read-out: cell panel IC50, 769-P
Answer format: numeric, µM implied, no suffix.

# annotated cases, reported IC50 shown
COc1cc(Nc2c(C#N)cnc3cc(OCCCN4CCN(C)CC4)c(OC)cc23)c(Cl)cc1Cl; 1.24
C[C@@H](Oc1cc(-c2cnn(C3CCNCC3)c2)cnc1N)c1c(Cl)ccc(F)c1Cl; 2.96
COc1cc2c(Nc3ccc(Br)cc3F)ncnc2cc1OCC1CCN(C)CC1; 1.22

The compound "CCN(CC)CCNC(=O)c1c(C)[nH]c(/C=C2\C(=O)Nc3ccc(F)cc32)c1C" on forty-four human cancer cell lines: IC50 was 2.66
